Exercise: for every item that follows, state its recorded pEC50.
- System: Plasmodium falciparum
- assay: NOVARTIS: Inhibition of Plasmodium falciparum W2 (drug-resistant) proliferation in erythrocyte-based infection assay
- Format: functional, organism-based
- conditionsUsed: Plasmodium falciparum, W2; read-out: EC50
pEC50: −log10 of the molar value.

Q: Report measured pEC50 on Plasmodium falciparum; entry: Cc1cccc(-n2nc3c(c2NC(=O)c2ccc4c(c2)OCO4)CS(=O)(=O)C3)c1C
Ans: < 5.90

Q: Report measured pEC50 on Plasmodium falciparum; entry: O=C(O)CSC(C(=O)Nc1ccc(Cl)cc1)c1ccccc1 (stereo not drawn)
Ans: < 5.87

Q: Report measured pEC50 on Plasmodium falciparum; entry: O=C(c1ccncc1)N1N=C(C(F)(F)F)CC1(O)c1cccc([N+](=O)[O-])c1 (stereo not drawn)
Ans: < 5.77

====

- assay: NOVARTIS: Cytotoxicity against human hepatocellular carcinoma cell line (Huh7)
- Assay type: toxicity, cell-based, Huh-7
- conditionsUsed: Huh7 cells (hepatocellular carcinoma cell line)
Exercise: for every item that follows, state its recorded CC50.

Q: Kindly indicate its recorded CC50. Item: CCCCOc1ccc(C(=O)Nc2cc(C)on2)cc1
Ans: > 100 µM

Q: Kindly indicate its recorded CC50. Item: CC(Sc1nnc2c3ccccc3n(Cc3ccccc3)c2n1)C(=O)N1CCN(C(=O)C(c2ccccc2)c2ccccc2)C(C)C1 (stereo not given)
Ans: > 10 µM

Q: Kindly indicate its recorded CC50. Item: COc1cc(C2CC(=O)NC(C)=C2C(=O)OC(C)C)c(OC)cc1Br (stereo not given)
Ans: > 100 µM

Q: Kindly indicate its recorded CC50. Item: CCCCCCN(CCCCCC)CC(O)c1cc(-c2ccc(Cl)cc2)nc2c(C)cc(C)cc12 (stereo not given)
Ans: 51.9 µM

Q: Kindly indicate its recorded CC50. Item: O=C(CCl)Nc1ccc(S(=O)(=O)OCC(F)(F)C(F)F)cc1
Ans: 17.1 µM

Q: Kindly indicate its recorded CC50. Item: CC(C)CNC(=O)c1cnc(NCCCN2CCCCC2C)nc1NCCc1ccccc1 (stereo not given)
Ans: > 10 µM

Q: Kindly indicate its recorded CC50. Item: COc1ccc2oc(=O)c(C(=O)N(C)c3ccc(S(N)(=O)=O)cc3)cc2c1
Ans: > 10 µM

Q: Kindly indicate its recorded CC50. Item: O=C(NN=Cc1ccc(O)c(O)c1)/C(=C/c1ccccc1)NC(=O)c1ccccc1
Ans: > 10 µM

Q: Kindly indicate its recorded CC50. Item: COc1ccc(-c2n(CC(=O)OC3CC(C)CCC3C(C)C)c3ccccc3[n+]2C)cc1 (stereo not given)
Ans: 13.4 µM

Q: Kindly indicate its recorded CC50. Item: CCOC(=O)CCC(=O)Oc1ccccc1-c1nc2ccccn2c1NC(C)(C)CC(C)(C)C
Ans: > 10 µM

Q: Kindly indicate its recorded CC50. Item: CN(C)CCCNc1ncnc2c1[nH]c1ccc(F)cc12
Ans: 48.7 µM

Q: Kindly indicate its recorded CC50. Item: COc1ccc(OC)c(/C=C/C(=O)Nc2ccc3nc(N4CCN(C)CC4)cc(C)c3c2)c1
Ans: > 10 µM

Q: Kindly indicate its recorded CC50. Item: COc1ccc(CCn2c(SCC(=O)N3CCN(c4ccccc4OC)CC3)nc3ccccc3c2=O)cc1OC
Ans: > 10 µM

Q: Kindly indicate its recorded CC50. Item: CCCCCOC(=O)C1=C(C)NC2=C(C(=O)CCC2)C1c1ccc(OC)c(Br)c1 (stereo not given)
Ans: > 100 µM

Q: Kindly indicate its recorded CC50. Item: CCc1nc2ccc(NC(=O)c3ccncc3)cc2c(=O)n1Cc1cccc(OC)c1
Ans: > 0.57 µM

Q: Kindly indicate its recorded CC50. Item: COc1ccc(OC)c(-c2ccc(O)c(CNCC3CCCCC3)c2)c1
Ans: > 10 µM

Q: Kindly indicate its recorded CC50. Item: COc1ccccc1N1CCN(C(=O)Nc2ccc3ccccc3c2)CC1
Ans: > 10 µM

Q: Kindly indicate its recorded CC50. Item: CCC(c1nc2cc(Cl)ccc2c(=O)n1CC)N(CC)C(=O)c1ccc2ccccc2c1 (stereo not given)
Ans: > 10 µM

Q: Kindly indicate its recorded CC50. Item: CCOC(=O)C(=O)N1c2ccccc2-c2c(ssc2=S)C1(C)C
Ans: > 100 µM

Q: Kindly indicate its recorded CC50. Item: O=C(CCc1ccccc1)c1ccccc1OCC(O)CN1CCCCC1 (stereo not given)
Ans: 87.9 µM

Q: Kindly indicate its recorded CC50. Item: Oc1c2c(nc3cc(-c4ccc(Br)cc4)nn13)CCCC2
Ans: > 100 µM

Q: Kindly indicate its recorded CC50. Item: Cc1ccc(C=Cc2ccc3ccccc3[n+]2C)cc1
Ans: 16.3 µM

Q: Kindly indicate its recorded CC50. Item: CCN(CC)CCN1C(=O)c2ccccc2NC1c1ccc(Cl)cc1 (stereo not given)
Ans: 53.3 µM

Q: Kindly indicate its recorded CC50. Item: CC(C)CC1C(c2ccc(Cl)cc2)C(C(=O)c2ccccc2)C2(C(=O)Nc3ccc(Br)cc32)N1C(=O)NCc1ccccc1 (stereo not given)
Ans: > 10 µM

Q: Kindly indicate its recorded CC50. Item: CC(=O)NC1=NN(C(C)=O)C(C)(c2ccc([N+](=O)[O-])cc2)S1 (stereo not given)
Ans: > 100 µM
